# EXPERIMENTAL_DETAILS: ATG_MRE_CIS: Attagene CIS-FACTORIAL HepG2 Assay for human Metal Responsive Element (MRE) (AID 2282954)
# PARTICULARS: HepG2 MRE cis-reporter transcription, Attagene multiplex; actives raise or lower the signal
# Description: ATG_CIS is a cell-based, multiplexed-readout assay that uses HepG2, a human liver cell line, with measurements taken at 24 hours after chemical dosing in a 24-well plate.ATG_MRE_CIS is one of 52 assay component(s) measured or calculated from the ATG_CIS assay. […] This assay endpoint, ATG_MRE_CIS, was analyzed with bidirectional fitting relative to DMSO as the negative control and baseline of activity. […]
Active and inactive are the calls of the source. Rule for the calls: active = hit-call score of the fitted dose curve at least 0.9, where 1 is the maximum; inactive = score below 0.9.
Outcome codes: 1 (yes) (active), 0 (no) (inactive)

{"COMPOUND": "CCNC(=S)NCC", "ASSIGNED_CATEGORY": "0 (no)"}
{"COMPOUND": "O=C(C=Cc1ccccc1)OCCCc1ccccc1", "ASSIGNED_CATEGORY": "0 (no)"}
{"COMPOUND": "CCO[Si](CCC#N)(OCC)OCC", "ASSIGNED_CATEGORY": "0 (no)"}
{"COMPOUND": "CCCCCCCCSCc1cc(C)c(O)c(CSCCCCCCCC)c1", "ASSIGNED_CATEGORY": "0 (no)"}
{"COMPOUND": "CC(C)(C)c1cc(CCC(=O)OCCSCCOC(=O)CCc2cc(C(C)(C)C)c(O)c(C(C)(C)C)c2)cc(C(C)(C)C)c1O", "ASSIGNED_CATEGORY": "0 (no)"}
{"COMPOUND": "CC(O)CNCC(C)O (stereo not given)", "ASSIGNED_CATEGORY": "0 (no)"}
{"COMPOUND": "[Cl][Dy]([Cl])[Cl]", "ASSIGNED_CATEGORY": "0 (no)"}
{"COMPOUND": "O=C1OCc2ccccc21", "ASSIGNED_CATEGORY": "0 (no)"}
{"COMPOUND": "CCC(C)(CCCC(C)C)OC(C)=O (stereo not given)", "ASSIGNED_CATEGORY": "0 (no)"}
{"COMPOUND": "CC(=O)OC(C)(C)C", "ASSIGNED_CATEGORY": "0 (no)"}
{"COMPOUND": "C=C(C)CCCC(C)CCO (stereo not given)", "ASSIGNED_CATEGORY": "0 (no)"}
{"COMPOUND": "N#CCCNCCC#N", "ASSIGNED_CATEGORY": "0 (no)"}
{"COMPOUND": "CN(C)CCC=C1c2ccccc2CCc2ccccc21", "ASSIGNED_CATEGORY": "1 (yes)"}
{"COMPOUND": "CCCCCCCOC(C)=O", "ASSIGNED_CATEGORY": "0 (no)"}
{"COMPOUND": "C1COCO1", "ASSIGNED_CATEGORY": "0 (no)"}

###

# EXPERIMENTAL_DETAILS: BSK_CASM3C_SRB: Viability Assessment in the BioMAP Diversity Plus: CASM3C Assay (AID 2283050);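 note: total protein by SRB staining as cytotoxicity measure in parallel cultures; cells exposed to compound for 24 h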
# PARTICULARS: primary human coronary artery smooth muscle cells
Calls of active or inactive are those of the source. Rule for the calls: active = hit-call score of the fitted dose curve at least 0.9, where 1 is the maximum; inactive = score below 0.9.
Outcome codes: active, inactive

{"MOLECULE": "C#C[C@]1(O)CC[C@H]2[C@@H]3CCc4cc(O)ccc4[C@H]3CC[C@@]21C", "ASSIGNED_CATEGORY": "inactive"}
{"MOLECULE": "CCCCCCCCCCCCS", "ASSIGNED_CATEGORY": "active"}
{"MOLECULE": "NC(=O)c1c(Cl)cccc1Cl", "ASSIGNED_CATEGORY": "inactive"}
{"MOLECULE": "OCCN1CCOCC1", "ASSIGNED_CATEGORY": "inactive"}
{"MOLECULE": "CC(C)CCCC(C)(C)O", "ASSIGNED_CATEGORY": "inactive"}
{"MOLECULE": "CC(=O)CCC=C(C)CCC=C(C)C", "ASSIGNED_CATEGORY": "inactive"}
{"MOLECULE": "COc1ccccc1NC(=O)CC(C)=O", "ASSIGNED_CATEGORY": "inactive"}
{"MOLECULE": "CCCO[Si](OCCC)(OCCC)OCCC", "ASSIGNED_CATEGORY": "inactive"}
{"MOLECULE": "CCCCCCCC1CCCC1=O (centres undefined)", "ASSIGNED_CATEGORY": "active"}
{"MOLECULE": "C=C(C)C(=O)OCCC(F)(F)C(F)(F)C(F)(F)C(F)(F)C(F)(F)C(F)(F)C(F)(F)C(F)(F)F", "ASSIGNED_CATEGORY": "inactive"}
{"MOLECULE": "CCCCCCCCCC(=O)OCC", "ASSIGNED_CATEGORY": "active"}
{"MOLECULE": "CC(C)(C)c1cccc(O)c1", "ASSIGNED_CATEGORY": "inactive"}
{"MOLECULE": "CC(=O)OCC=C(C)CCC=C(C)CCC=C(C)C", "ASSIGNED_CATEGORY": "inactive"}
{"MOLECULE": "CCOC(=O)C=Cc1ccccc1", "ASSIGNED_CATEGORY": "inactive"}

###

# SYSTEM_TESTED: human Retinoid X Receptor beta (RXRb), RXRB (gene 6257) (UniProt P28702)
# Sequence (P28702 whole entry, looked up): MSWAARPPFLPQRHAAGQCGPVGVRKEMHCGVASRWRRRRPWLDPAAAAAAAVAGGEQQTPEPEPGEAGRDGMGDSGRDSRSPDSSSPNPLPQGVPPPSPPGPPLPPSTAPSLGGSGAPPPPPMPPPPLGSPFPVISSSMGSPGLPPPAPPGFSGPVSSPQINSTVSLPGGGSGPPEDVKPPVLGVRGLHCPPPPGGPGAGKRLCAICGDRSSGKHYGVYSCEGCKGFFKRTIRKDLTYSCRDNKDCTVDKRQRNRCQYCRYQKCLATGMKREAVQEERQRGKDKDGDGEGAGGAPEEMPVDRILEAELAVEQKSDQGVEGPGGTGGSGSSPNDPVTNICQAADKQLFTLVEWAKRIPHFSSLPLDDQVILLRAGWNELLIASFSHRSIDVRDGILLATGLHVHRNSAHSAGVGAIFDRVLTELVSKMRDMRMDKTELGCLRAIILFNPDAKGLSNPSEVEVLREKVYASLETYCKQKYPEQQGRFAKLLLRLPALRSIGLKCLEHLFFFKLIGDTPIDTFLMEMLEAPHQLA
# EXPERIMENTAL_DETAILS: ATG_RXRb_TRANS: Attagene TRANS-FACTORIAL HepG2 Assay for human Retinoid X Receptor beta (RXRb) (AID 2283013)
Inconclusive results are not listed. Calls of active or inactive are those of the source. The calls were made as follows: active = hit-call score of the fitted dose curve at least 0.9, where 1 is the maximum; inconclusive = response in the unintended direction; inactive = score below 0.9.
Outcome codes: active, inactive

{"COMPOUND": "CC(=O)OC(C)(C)C1CC=C(C)CC1 (stereo unspecified)", "ASSIGNED_CATEGORY": "inactive"}
{"COMPOUND": "CC(=O)c1ccc(O)cc1", "ASSIGNED_CATEGORY": "inactive"}
{"COMPOUND": "N#CCCCC(C#N)CCC#N (stereo unspecified)", "ASSIGNED_CATEGORY": "inactive"}
{"COMPOUND": "CC(C)N(c1ccccc1)C(C)C", "ASSIGNED_CATEGORY": "inactive"}
{"COMPOUND": "CC(C)(O)CCc1ccccc1", "ASSIGNED_CATEGORY": "inactive"}
{"COMPOUND": "O=S1(=O)CC(Cl)(Cl)C(Cl)(Cl)C1", "ASSIGNED_CATEGORY": "inactive"}
{"COMPOUND": "C=C1CC/C=C(\\C)CC[C@@H]2[C@@H]1CC2(C)C", "ASSIGNED_CATEGORY": "active"}
{"COMPOUND": "CCC(C)COC(=O)CC(C)C (stereo unspecified)", "ASSIGNED_CATEGORY": "inactive"}
{"COMPOUND": "COc1ccc2[nH]cc(CCNC(C)=O)c2c1", "ASSIGNED_CATEGORY": "inactive"}
{"COMPOUND": "CN(C)c1ccc(C=O)cc1", "ASSIGNED_CATEGORY": "inactive"}
{"COMPOUND": "CCCCCCCCCCCCOC(C)=O", "ASSIGNED_CATEGORY": "inactive"}
{"COMPOUND": "CCC(C)(C)C1CCC(OC)CC1 (stereo unspecified)", "ASSIGNED_CATEGORY": "inactive"}
{"COMPOUND": "NC(=O)c1cnccn1", "ASSIGNED_CATEGORY": "inactive"}
{"COMPOUND": "CCCOC(=O)CC", "ASSIGNED_CATEGORY": "inactive"}
{"COMPOUND": "CC(C)=CCCC(C)=CC(=O)O", "ASSIGNED_CATEGORY": "inactive"}
{"COMPOUND": "CCCCCC#CC(=O)OC", "ASSIGNED_CATEGORY": "active"}

###

# Read-out: Pselectin, SELP (gene 6403)
# EXPERIMENTAL_DETAILS: BSK_4H_Pselectin: BioMAP Diversity Plus: 4H Assay for Pselectin Biomarker Activity (AID 2283026)
# PARTICULARS: primary human endothelial cells (HUVEC); actives raise or lower the signal
Active and inactive are the calls of the source. Rule for the calls: active = hit-call score of the fitted dose curve at least 0.9, where 1 is the maximum; inactive = score below 0.9.
Outcome codes: YES for active, NO for inactive

{"MOLECULE": "CCCCCCCC1CCCC1=O (configuration not stated)", "ASSIGNED_CATEGORY": "YES"}
{"MOLECULE": "O=S1(=O)CC(Cl)(Cl)C(Cl)(Cl)C1", "ASSIGNED_CATEGORY": "YES"}
{"MOLECULE": "NC(=O)c1c(Cl)cccc1Cl", "ASSIGNED_CATEGORY": "NO"}
{"MOLECULE": "COc1ccccc1NC(=O)CC(C)=O", "ASSIGNED_CATEGORY": "NO"}
{"MOLECULE": "CC=CC(=O)C1=C(C)C=CCC1(C)C", "ASSIGNED_CATEGORY": "NO"}
{"MOLECULE": "C=C(C)C(N)=O", "ASSIGNED_CATEGORY": "NO"}
{"MOLECULE": "C[C@]12CC[C@@H]3c4ccc(O)cc4CC[C@H]3[C@@H]1CC[C@@H]2O", "ASSIGNED_CATEGORY": "NO"}
